These entries and their values trace back to PubChem BioAssay (NCI).

- Tested on: K-562 leukemia
- test: NCI tumour cell line growth inhibition, 48 h; in the data active = GI50 below about 0.43 µM; inactive = the rest
Outcome codes: active, inactive

compound: CC(C)(C)OC(=O)N[C@@H](Cc1ccccc1)C(=O)N(Cc1ccccc1)C1(C(=O)NCc2ccccc2)CCN(Cc2ccccc2)CC1
label class: inactive
--
compound: COc1cc2nccc(Oc3ccc(NC(=O)c4cn(C(C)C)c(=O)n(-c5ccc(F)cc5)c4=O)cc3F)c2cc1OC
label class: active
--
compound: O=P(O)(O)OCC1OC(n2cnc3c(NCc4ccccc4)ncnc32)C(O)C1O (centres undefined)
label class: inactive
--
compound: CCC1=C(CC2NCCc3ccccc32)CC2c3cc(OC)c(OC)cc3CCN2C1 (centres undefined)
label class: inactive

----------
- Tested on: UACC-62 melanoma
- test: NCI tumour cell line growth inhibition, 48 h

molecule: COc1c(N2CCN(CN3C(=O)C(=Nc4ccc(S(=O)(=O)Nc5ncccn5)cc4)c4cc(Cl)ccc43)C(C)C2)c(F)cc2c(=O)c(C(=O)O)cn(C3CC3)c12 (centres undefined)
target: UACC-62 melanoma
reading unit: µM
censoring operator: =
TGI: 49.9

molecule: CCOC(=O)C(NC(=O)c1cccc(Cl)c1)(Nc1cccc(C)c1)C(F)(F)F (centres undefined)
target: UACC-62 melanoma
reading unit: µM
censoring operator: =
TGI: 28.5

molecule: O=C1C=CC(=O)c2c(O)c(N3CCC[C@@H]3CO)c(Cl)c(O)c21
target: UACC-62 melanoma
reading unit: µM
censoring operator: =
TGI: 2.96

molecule: COc1cc2c(cc1OCc1ccccc1)NC(=O)[C@@H]1CCCN1C2=O
target: UACC-62 melanoma
reading unit: µM
censoring operator: >
TGI: 100

----------
- System: MDA-N
- test: NCI tumour cell line growth inhibition, 48 h
compounds and their reported TGI

compound: CCOC(=O)c1c(-c2ccccc2)c(OC)cn1C
target: MDA-N
TGI: > 10 µM
//
compound: CCOC(=O)C(NC(=O)c1cccc(Cl)c1)(Nc1cccc(C)c1)C(F)(F)F (stereo unspecified)
target: MDA-N
TGI: 38.8 µM
//
compound: CC(=O)/C(=N\Nc1ccc(Cl)cc1)C(C)=Nc1ccc(C)cc1
target: MDA-N
TGI: > 100 µM
//
compound: O=C([O-])CC(=O)[O-].[NH-][C@@H]1CCCC[C@H]1[NH-].[Pt+4]
target: MDA-N
TGI: > 100 µM
//
compound: COc1ccc(-c2cc3cc(Cl)cc(Cl)c3oc2=O)cc1OC
target: MDA-N
TGI: > 100 µM
//
compound: CC1(C)C=C(/C=C2/N(S(=O)(=O)C(F)(F)F)C(/C=C3/N(S(=O)(=O)C(F)(F)F)C(C)(C#N)CC3(C)C)=CC2(C)C)N=C1/C=C1/CC(C)(C)C(=O)N1 (stereo unspecified)
target: MDA-N
TGI: > 100 µM
//
compound: CS(=O)(=O)Nc1ccc2ccccc2c1
target: MDA-N
TGI: > 100 µM
//
compound: CC(=N/NC(=S)N(C)C)/C(=N\NC(=S)N(C)C)c1ccccc1
target: MDA-N
TGI: 8.58 µM
//
compound: O=C([C@H](O)[C@@H](O)c1cccc(Cl)c1)C12CC3CC(CC(C3)C1)C2
target: MDA-N
TGI: 5.92 µM
//
compound: OC(CC(O)(C(F)(F)Cl)C(F)(F)Cl)c1ccccc1 (stereo unspecified)
target: MDA-N
TGI: > 10 µM
//
compound: CCOC(=O)c1csc(NC(=O)CCN2CCN(C)CC2)n1
target: MDA-N
TGI: > 100 µM
//
compound: O=c1c2cc([N+](=O)[O-])ccc2oc2nc3n(c(=O)c12)CCCS3
target: MDA-N
TGI: > 100 µM
//
compound: Cc1cc(-c2ccccc2)nc2oc(=O)n(C)c12
target: MDA-N
TGI: > 100 µM
//
compound: Cc1cccc2c1CC(Cc1ccccc1C(=O)O)C2=O (stereo unspecified)
target: MDA-N
TGI: > 100 µM
//
compound: O=C(O)c1ccc(SSc2ccc(C(=O)O)cn2)nc1
target: MDA-N
TGI: > 100 µM
//
compound: Oc1ccccc1/C=N/N1C(=S)N(C23CC4CC(CC(C4)C2)C3)C(=Nc2ccccc2)C1=Nc1ccccc1
target: MDA-N
TGI: > 100 µM
//
compound: O=C[C@@H](CO)O[C@H](C=O)n1cnc2c(=O)[nH]cnc21
target: MDA-N
TGI: 1610 µM
//
compound: CSc1ccc(/C=C2\N=C(c3ccccc3)N(c3nc4cc(Cl)c(F)cc4s3)C2=O)cc1
target: MDA-N
TGI: > 100 µM
//
compound: CSc1nc(=O)c2nc(-c3cccs3)c(-c3cccs3)nc2n1C
target: MDA-N
TGI: > 100 µM
//
compound: CC(C)=CCC[C@@H](C)C1=C(Nc2ccccc2F)C(O)=C(C)C(=O)C1=O
target: MDA-N
TGI: > 100 µM
//
compound: Cn1c(=O)cc(NNc2ccc(Cl)c(Cl)c2)[nH]c1=O
target: MDA-N
TGI: 23.3 µM
